molecular target: human CB1R (Homo sapiens, UniProt P21554); construct: host or cells: CHO cells; test: CB1R mediated modulation of cAMP synthesis; format: cell-based; conditions: read-out: CB1 EC50; CHO cells expressing human CB1R; inhibition of forskolin-stimulated cAMP synthesis
Sequence (P21554 whole entry): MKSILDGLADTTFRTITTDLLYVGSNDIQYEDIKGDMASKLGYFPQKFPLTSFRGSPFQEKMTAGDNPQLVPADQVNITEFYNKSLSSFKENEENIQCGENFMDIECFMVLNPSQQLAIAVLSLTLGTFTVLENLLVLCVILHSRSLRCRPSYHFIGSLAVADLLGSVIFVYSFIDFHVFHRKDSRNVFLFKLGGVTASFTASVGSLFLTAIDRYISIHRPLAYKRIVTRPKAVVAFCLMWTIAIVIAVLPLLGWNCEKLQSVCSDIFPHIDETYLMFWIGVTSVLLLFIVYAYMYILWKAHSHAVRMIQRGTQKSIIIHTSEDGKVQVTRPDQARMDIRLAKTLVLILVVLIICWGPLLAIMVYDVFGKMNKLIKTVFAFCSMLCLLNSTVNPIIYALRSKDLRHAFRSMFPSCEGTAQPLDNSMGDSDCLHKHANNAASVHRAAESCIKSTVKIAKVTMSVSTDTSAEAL
assay metric: EC50

Data request, read-out EC50, for CC(C)(NC1CCC(NS(C)(=O)=O)CC1)C(=O)Nc1nnn(C(C)(C)C)n1 (stereo not shown)
> 50 µM

----------
biological target: human CB2R (Homo sapiens); construct: host or cells: CHO cells; assay: CB2R mediated modulation of cAMP synthesis; assay type: cell-based
Sequence (P34972 whole entry): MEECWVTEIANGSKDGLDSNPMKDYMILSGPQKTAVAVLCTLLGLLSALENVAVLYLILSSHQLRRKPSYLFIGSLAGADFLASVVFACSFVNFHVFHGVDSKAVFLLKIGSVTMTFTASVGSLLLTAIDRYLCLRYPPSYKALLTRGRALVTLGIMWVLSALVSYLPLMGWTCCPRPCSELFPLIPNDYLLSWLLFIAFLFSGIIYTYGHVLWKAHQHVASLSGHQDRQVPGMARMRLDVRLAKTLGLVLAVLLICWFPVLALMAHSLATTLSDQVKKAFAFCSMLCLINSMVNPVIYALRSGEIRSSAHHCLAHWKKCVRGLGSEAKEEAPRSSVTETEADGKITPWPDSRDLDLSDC
Quick rule for you: EC50 under 0.03 µM gets 1, anything else gets 0.

As a guide, the following entries are already answered.
1) CC(C)(N[C@H]1CC[C@@H](NS(C)(=O)=O)CC1)C(=O)Nc1cc(C(C)(C)CO)no1 ... 0
2) CN(C1CCOCC1)C(C)(C)C(=O)Nc1cc(C(C)(C)CO)no1 ... 0
3) CN(C1CCOCC1)C(C)(C)C(=O)Nc1cc(C(C)(C)COCCO)no1 ... 1
4) CN(CC1CCOCC1)C(C)(C)C(=O)Nc1cc(C2(O)CC2)no1 ... 1
5) CC(C)(NCCCC(F)(F)F)C(=O)Nc1cc(C(C)(C)CO)no1 ... 0

Kindly review the next compound as well.
Consider CN(C(=O)CCC(F)(F)F)C(C)(C)C(=O)Nc1cc(C(C)(C)CO)no1 . Does its EC50 lie strictly below 0.03 µM?
0
